System: 415267-285-R-J2-PDC complex spheroid viability
Procedure Details: Anticancer human tumor 415267-285-R-J2-PDC patient-derived breast carcinoma cell line growth inhibition [POLQ]
Protocol Conditions: second compound 1 µM; first compound 10 µM; stronger effect = lower value
Reported Property: viability, T/C (%)
Answers are plain numbers, in %.

[
  {
    "Compound": "CC1COCCN1c1cc(C2(O)CC3CCC(C2)O3)c2cnn(-c3ccn[nH]3)c2n1 (stereo not drawn) + COC1C(OC(N)=O)C(O)C(Oc2ccc3c(O)c(NC(=O)c4ccc(O)c(CC=C(C)C)c4)c(=O)oc3c2C)OC1(C)C",
    "Result Number": 3.65
  },
  {
    "Compound": "CC1COCCN1c1cc(C2(S(C)(=N)=O)CC2)nc(-c2ccnc3[nH]ccc23)n1 (stereo not drawn) + COC1C(OC(N)=O)C(O)C(Oc2ccc3c(O)c(NC(=O)c4ccc(O)c(CC=C(C)C)c4)c(=O)oc3c2C)OC1(C)C",
    "Result Number": 4.78
  }
]

Next:
For record CC1COCCN1c1cc(-c2ccnn2C)c2ccnc(-c3ccn[nH]3)c2n1 (stereo not drawn) + Nc1ccc(C#CCN(C(=O)Cc2ncc(C(F)(F)F)cc2C(F)(F)F)c2ccc(F)cc2)nn1 the listed viability, T/C is 3.28

* * *

Tested on: 415267-285-R-J2-PDC complex spheroid viability
Procedure Details: Anticancer human tumor 415267-285-R-J2-PDC cell line growth inhibition [POLQ];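 also: luminescence used as stand-in measure of viable cells; spheroids exposed to compounds for one week before readout; 100% = DMSO vehicle control viability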
Protocol Conditions: second compound 3.16 µM; first compound 3.16 µM; stronger effect = lower value
Reported Property: viability, T/C (%)
One number for each entry, in %.

[
  {
    "Molecule": "O=C(c1cc(Cc2n[nH]c(=O)c3ccccc23)ccc1F)N1CCN(C(=O)C2CC2)CC1 + Nc1ccc(C#CCN(C(=O)Cc2ncc(C(F)(F)F)cc2C(F)(F)F)c2ccc(F)cc2)nn1",
    "Tested Target": "415267-285-R-J2-PDC complex spheroid viability",
    "Units Text": "%",
    "viability, T/C": 105
  },
  {
    "Molecule": "O=C(c1cc(Cc2n[nH]c(=O)c3ccccc23)ccc1F)N1CCN(C(=O)C2CC2)CC1 + Cc1cccc(N(C)C(=O)C2C(O)CCN2c2nc(C)cc(C(F)(F)F)c2C#N)c1",
    "Tested Target": "415267-285-R-J2-PDC complex spheroid viability",
    "Units Text": "%",
    "viability, T/C": 87.7
  },
  {
    "Molecule": "CCCS(=O)(=O)Nc1ccc(F)c(C(=O)c2c[nH]c3ncc(-c4ccc(Cl)cc4)cc23)c1F + Nc1ccc(C#CCN(C(=O)Cc2ncc(C(F)(F)F)cc2C(F)(F)F)c2ccc(F)cc2)nn1",
    "Tested Target": "415267-285-R-J2-PDC complex spheroid viability",
    "Units Text": "%",
    "viability, T/C": 94.2
  },
  {
    "Molecule": "Nc1ccn(C2OC(CO)C(O)C2(F)F)c(=O)n1 (stereo not given) + COC1C(OC(N)=O)C(O)C(Oc2ccc3c(O)c(NC(=O)c4ccc(O)c(CC=C(C)C)c4)c(=O)oc3c2C)OC1(C)C",
    "Tested Target": "415267-285-R-J2-PDC complex spheroid viability",
    "Units Text": "%",
    "viability, T/C": 5.4
  },
  {
    "Molecule": "CC1COCCN1c1cc(C2(S(C)(=N)=O)CC2)nc(-c2ccnc3[nH]ccc23)n1 (stereo not given) + COC1C(OC(N)=O)C(O)C(Oc2ccc3c(O)c(NC(=O)c4ccc(O)c(CC=C(C)C)c4)c(=O)oc3c2C)OC1(C)C",
    "Tested Target": "415267-285-R-J2-PDC complex spheroid viability",
    "Units Text": "%",
    "viability, T/C": 6.8
  },
  {
    "Molecule": "COc1cc2cc(C(=O)CCC(=O)O)sc2cc1OC + COC1C(OC(N)=O)C(O)C(Oc2ccc3c(O)c(NC(=O)c4ccc(O)c(CC=C(C)C)c4)c(=O)oc3c2C)OC1(C)C",
    "Tested Target": "415267-285-R-J2-PDC complex spheroid viability",
    "Units Text": "%",
    "viability, T/C": 96
  },
  {
    "Molecule": "C#Cc1c(F)ccc2cc(O)cc(-c3ncc4c(N5CC6CCC(C5)N6)nc(OCC56CCCN5CC(F)C6)nc4c3F)c12 (stereo not given) + COC1C(OC(N)=O)C(O)C(Oc2ccc3c(O)c(NC(=O)c4ccc(O)c(CC=C(C)C)c4)c(=O)oc3c2C)OC1(C)C",
    "Tested Target": "415267-285-R-J2-PDC complex spheroid viability",
    "Units Text": "%",
    "viability, T/C": 94.5
  },
  {
    "Molecule": "O=C(Nc1ccc(O)c(NS(=O)(=O)c2ccc(F)cc2)c1)c1ccc(-c2ccccc2)cc1 + COC1C(OC(N)=O)C(O)C(Oc2ccc3c(O)c(NC(=O)c4ccc(O)c(CC=C(C)C)c4)c(=O)oc3c2C)OC1(C)C",
    "Tested Target": "415267-285-R-J2-PDC complex spheroid viability",
    "Units Text": "%",
    "viability, T/C": 94.4
  },
  {
    "Molecule": "CCc1cc2c(N3CCc4c(cc(Cn5ccnc5)cc4-c4cn(C)nc4C(F)(F)F)C3=O)cc(C)nc2c(OC)n1 + Cc1cccc(N(C)C(=O)C2C(O)CCN2c2nc(C)cc(C(F)(F)F)c2C#N)c1",
    "Tested Target": "415267-285-R-J2-PDC complex spheroid viability",
    "Units Text": "%",
    "viability, T/C": 84.8
  },
  {
    "Molecule": "CCc1cc2c(N3CCc4c(cc(Cn5ccnc5)cc4-c4cn(C)nc4C(F)(F)F)C3=O)ccnc2c(OC)n1 + COC1C(OC(N)=O)C(O)C(Oc2ccc3c(O)c(NC(=O)c4ccc(O)c(CC=C(C)C)c4)c(=O)oc3c2C)OC1(C)C",
    "Tested Target": "415267-285-R-J2-PDC complex spheroid viability",
    "Units Text": "%",
    "viability, T/C": 73.5
  }
]

Need viability, T/C for each of these molecules.
1. CC1COCCN1c1cc(C2(O)CC3CCC(C2)O3)c2cnn(-c3ccn[nH]3)c2n1 (stereo not given) + Nc1ccc(C#CCN(C(=O)Cc2ncc(C(F)(F)F)cc2C(F)(F)F)c2ccc(F)cc2)nn1
2. O=c1[nH]cc(F)c(=O)[nH]1 + Nc1ccc(C#CCN(C(=O)Cc2ncc(C(F)(F)F)cc2C(F)(F)F)c2ccc(F)cc2)nn1
3. COc1ccc([C@@H](O)c2cc(-c3ncnc4cc(N5CCOCC5)ccc34)c(F)cc2Cl)nn1 + Nc1ccc(C#CCN(C(=O)Cc2ncc(C(F)(F)F)cc2C(F)(F)F)c2ccc(F)cc2)nn1
4. CNCc1ccc(-c2[nH]c3cc(F)cc4c3c2CCNC4=O)cc1 + Cc1cccc(N(C)C(=O)C2C(O)CCN2c2nc(C)cc(C(F)(F)F)c2C#N)c1
5. CC1COCCN1c1cc(-c2ccnn2C)c2ccnc(-c3ccn[nH]3)c2n1 (stereo not given) + COC1C(OC(N)=O)C(O)C(Oc2ccc3c(O)c(NC(=O)c4ccc(O)c(CC=C(C)C)c4)c(=O)oc3c2C)OC1(C)C

Result string:
1: 3.8; 2: 24.1; 3: 93.3; 4: 97.8; 5: 4.13

Need viability, T/C for each of these molecules.
1. C#Cc1c(F)ccc2cc(O)cc(-c3ncc4c(N5CC6CCC(C5)N6)nc(OCC56CCCN5CC(F)C6)nc4c3F)c12 (stereo not given) + Cc1cccc(N(C)C(=O)C2C(O)CCN2c2nc(C)cc(C(F)(F)F)c2C#N)c1
2. O=C(Nc1ccc(O)c(NS(=O)(=O)c2ccc(F)cc2)c1)c1ccc(-c2ccccc2)cc1 + Cc1cccc(N(C)C(=O)C2C(O)CCN2c2nc(C)cc(C(F)(F)F)c2C#N)c1
3. O=C(Nc1ccc(O)c(NS(=O)(=O)c2ccc(F)cc2)c1)c1ccc(-c2ccccc2)cc1 + Nc1ccc(C#CCN(C(=O)Cc2ncc(C(F)(F)F)cc2C(F)(F)F)c2ccc(F)cc2)nn1
4. CNCc1ccc(-c2[nH]c3cc(F)cc4c3c2CCNC4=O)cc1 + COC1C(OC(N)=O)C(O)C(Oc2ccc3c(O)c(NC(=O)c4ccc(O)c(CC=C(C)C)c4)c(=O)oc3c2C)OC1(C)C
5. CCc1cc2c(N3CCc4c(cc(Cn5ccnc5)cc4-c4cn(C)nc4C(F)(F)F)C3=O)cc(C)nc2c(OC)n1 + COC1C(OC(N)=O)C(O)C(Oc2ccc3c(O)c(NC(=O)c4ccc(O)c(CC=C(C)C)c4)c(=O)oc3c2C)OC1(C)C

Result string:
1. 91.3
2. 94.2
3. 91.7
4. 102
5. 80.9
